# ASSAY_SETUP: in water, 298.15 K
PROPERTY_MEASURED: solubility (mole fraction)
I'd appreciate a reply containing only the number, no unit.

-- ask Given the entry O=S(=O)([O-])c1cccc2ccccc12.[Na+] , report its measured solubility (mole fraction).
-- reply 0.0126

====

# ASSAY_SETUP: in water, 308.15 K
PROPERTY_MEASURED: solubility (mole fraction)
I'd appreciate a reply containing only the number, no unit.

-- ask Given the entry O=S(=O)([O-])c1cccc2ccccc12.[Na+] , report its measured solubility (mole fraction).
-- reply 0.0141

====

# ASSAY_SETUP: in water, 318.15 K
PROPERTY_MEASURED: solubility (mole fraction)
I'd appreciate a reply containing only the number, no unit.

-- ask Given the entry O=S(=O)([O-])c1cccc2ccccc12.[Na+] , report its measured solubility (mole fraction).
-- reply 0.0169

====

# ASSAY_SETUP: in water, 303.15 K
PROPERTY_MEASURED: solubility (mole fraction)
I'd appreciate a reply containing only the number, no unit.

-- ask Given the entry O=S(=O)([O-])c1cccc2ccccc12.[Na+] , report its measured solubility (mole fraction).
-- reply 0.0134

====

# ASSAY_SETUP: in water, 288.15 K
PROPERTY_MEASURED: solubility (mole fraction)
I'd appreciate a reply containing only the number, no unit.

-- ask Given the entry O=S(=O)([O-])c1cccc2ccccc12.[Na+] , report its measured solubility (mole fraction).
-- reply 0.0113

====

# ASSAY_SETUP: in water, 278.15 K
PROPERTY_MEASURED: solubility (mole fraction)

-- ask Given the entry O=S(=O)([O-])c1cccc2ccccc12.[Na+] , report its measured solubility (mole fraction).
-- reply 0.0107
